# Condition summary: in ethyl acetate, 303.15 K
Property label: solubility (mole fraction)
Please give only the number in your answer, with no unit.

Qu. Give the measured solubility (mole fraction) of O=C(O)CCCc1c[nH]c2ccccc12 .
Ans. 0.0914

###

# Condition summary: in acetone, 308.15 K
Property label: solubility (mole fraction)
// print number alone

Qu. Recorded solubility (mole fraction) of O=C(O)CCCc1c[nH]c2ccccc12 , please.
Ans. 0.315

###

# Condition summary: in sec-butanol, 318.15 K
Property label: solubility (mole fraction)
Give the figure only, with no unit attached.

Qu. Recorded solubility (mole fraction) of O=C(O)CCCc1c[nH]c2ccccc12 , please.
Ans. 0.13
